Target: T1, UNK ZnF1-3 (human, UniProt Q9C0B0 31-174)
T1 sequence: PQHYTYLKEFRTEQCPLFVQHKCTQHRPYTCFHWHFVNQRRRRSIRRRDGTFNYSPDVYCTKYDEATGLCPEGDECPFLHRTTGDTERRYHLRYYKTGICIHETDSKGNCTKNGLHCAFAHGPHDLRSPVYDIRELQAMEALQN
Experiment: nsRBNS (natural sequence RNA bind-n-seq); RBNS binding buffer (assumed for nsRBNS): 25 mM Tris pH 7.5, 150 mM KCl, 3 mM MgCl2, 0.01% Triton X-100, 500 ug/ml BSA, 20 U/ml SUPERase-In, 4 C; UNK is unkempt and MSI1 is Musashi-1; names of the RNAs are library labels; protein concentration not given here; high values mean tight binding
In all, about 24,000 sequences were measured (“enrichment r”: median about 0.99, highest 2% from about 3.7 on). What follows is part of a selection rich in the highest values, with near analogues and random picks from the rest.
Mark rule met for binding signal under 2 enrichment R, rule not met if at or over.

BINDER	CLASSIFICATION
chr2:241070490:241070491:-_ENSG00000172428_ENST00000607357|hu_mus|FALSE|FALSE (ssRNA) RNA: GGGAGUUCUACAGUCCGACGAUCUCACAGACAUGGAGCACAUAGGACCGGGCGGCCUCACUGGACAUCAUCAUCAUCAAAAAGGUCUUCAAAAUCAUUAAAAAAGUCUGCAUGAACGGCCUUCUCAUUGGCUGCCAGGUCCAUCAACAGAGGAUUGAGCAUCA	rule met
chr15:100049815:100049816:+_ENSMUSG00000023026_ENSMUST00000100203|mus_hu|motif|central (ssRNA) RNA: GGGAGUUCUACAGUCCGACGAUCAAUGAGUUAAUAGAACACUGUCCAGCCAGAUGUUAAAUUUAAAAACGUAUAUCGGGUCGGACUUCAAAUAAAUAAAAAAACUUUAUACAUAAUUACACAGUACUGUAGUUUGAAUUUGACCAACAGAGGAUUGAGCAUCA	rule not met
chr1:58468927:58468928:-_ENSMUSG00000026034_ENSMUST00000148330|mus_mus|mus_mus_mus_hu_False|28_68 (ssRNA) RNA: GGGAGUUCUACAGUCCGACGAUCAAUUACUGAAAAAGAUGUUCAUUACCUUAGCUAUGUACUUAAUUUAAUAAAGCACCCAAACAAAAUAAACAUGGCAAUAUAAAAAGCUAUACAAUUUACAAAGCUGUACAAAAUAACUUACAACAGAGGAUUGAGCAUCA	rule met
chr1:58468927:58468928:-_ENSMUSG00000026034_ENSMUST00000148330|mus_mus|mus_mus_mus_hu_False|1_68 (ssRNA) RNA: GGGAGUUCUACAGUCCGACGAUCAAUUACUGAAAAAGAUGUUCAUUACCUUAGCUAUGUACUUAAUUUAAUAAAGCACCCAAACAAAAUAAACAUGGCAAUAUAAAAAUGUUAAGAAUUUACAAAGCUGUACAAAAAGACUGACAACAGAGGAUUGAGCAUCA	rule met
chr1:58468927:58468928:-_ENSMUSG00000026034_ENSMUST00000148330|mus_mus|mus_mus_mus_hu_False|68_68 (ssRNA) RNA: GGGAGUUCUACAGUCCGACGAUCAAUUACUGAAAAAGAUGUUCAUUACCUUAGCUAUGUACUUAAUUUAAUAAAGCACCCAAACAAAAUAAACAUGGCAAUAUAAAAAUGUUAAGAAUUUACAAAGCUGUACAAAAUAACUUACAACAGAGGAUUGAGCAUCA	rule met
chr5:38529174:38529175:-_ENSMUSG00000029126_ENSMUST00000031009|mus_mus|FALSE|FALSE (ssRNA) RNA: GGGAGUUCUACAGUCCGACGAUCGAAAAGCUAAAGUAGCCCUGGCUUACCCAAAAUUACAUUUCACUUUGCCCACUGGCUAAUAAAACAAAACAAAACAAAACAAAAAACCCAAACUGCACCUGCAUUCAGGGCUGUACGUGCCAACAGAGGAUUGAGCAUCA	rule met
42454244_42454364_2548_CDS_ENSG00000166887_ENST00000318006|human|control|control (ssRNA) RNA: GGGAGUUCUACAGUCCGACGAUCAUGGAGAAGGUUCUUGAGCACUUGAUUGAACCGUUUCUUUUGUGCAUUUUCUUCCAAGACCUUUUCCAGGAAGAUGCGUAUGUCAUUGAUCUGAGUGUUUGCUGGCAGAAGGUUGAGGGCCAACAGAGGAUUGAGCAUCA	rule met
chr5:38529146:38529147:-_ENSMUSG00000029126_ENSMUST00000031009|mus_mus|FALSE|FALSE (ssRNA) RNA: GGGAGUUCUACAGUCCGACGAUCAGAAAAGCUAAAGUAGCCCUGGCUUACCCAAAAUUACAUUUCACUUUGCCCACUGGCUAAUAAAACAAAACAAAACAAAACAAAAAACCCAAACUGCACCUGCAUUCAGGGCUGUACGUGCAACAGAGGAUUGAGCAUCA	rule not met
chr17:15081082:15081083:+_ENSMUSG00000050088_ENSMUST00000052691|mus_mus|motif|central (ssRNA) RNA: GGGAGUUCUACAGUCCGACGAUCUGCUCCAGCAUAUUCAAGGGAUCAGAAGAGAAUUUCAAGCACCAGUUUCAAAAUGCGGAUCAAUAUCGUCCAGAGAACUGAUUCCUCCUCUUGGGCUGCCUCUUCUGGAGCGUAAGCCUGCAACAGAGGAUUGAGCAUCA	rule met
chr17:56552419:56552420:-_ENSMUSG00000013236_ENSMUST00000086828|mus_mus|mus_mus_mus_hu_False|38_38 (ssRNA) RNA: GGGAGUUCUACAGUCCGACGAUCAAAAAAUACACUAUUUAAAAAAAAUGAAAUGUCACGGGAUACAGUUACACUGAGAGUUUUAAAAGAAAGCUGGAAAAAAAAUGCAGCCCAGUGUCCCCAGGCUGCAGAGCGGGGAGGAGCCAACAGAGGAUUGAGCAUCA	rule not met
chr1:58468927:58468928:-_ENSMUSG00000026034_ENSMUST00000148330|mus_mus|mus_mus_mus_hu_False|18_68 (ssRNA) RNA: GGGAGUUCUACAGUCCGACGAUCAAUUACUGAAAAAGAUGUUCAUUACCUUAGCUAUGUACUUAAUUUAAUAAAGCACCCAAACAAAAUAAACAUGGCAAUAUAAAAAUGUUAAGAAAAUAACUUACUGUACAAAAUAACUUACAACAGAGGAUUGAGCAUCA	rule not met
chr15:59961163:59961164:-_ENSG00000140299_ENST00000607373|hu_mus|FALSE|FALSE (ssRNA) RNA: GGGAGUUCUACAGUCCGACGAUCGCCGACAUACUCCAUGGGAACAAGCUCUGCCAGCUCGGCCAAGUUAAAGACGUAUCUGAUCUUCUGACUGAACUUUGAACUGAUAAAUGGUCGUGUAACAGCCAGAAGUGUUCGGAUAAACAACAGAGGAUUGAGCAUCA	rule met

All figures here come from paper PMC12136788.
